Values compiled from PubChem BioAssay (NCATS).

Assay: Primary qHTS for inhibitors of nuclear receptor binding SET domain protein 2 (NSD2) in an isogenic RCH-ACV NSD2 p.E1099K mutant (9B) (AID 1645876); further: nearly all actives have a fitted effect of over 70% in size
Conditions: RCH-ACV (leukaemia line) NSD2 E1099K (9B) viability, CellTiter-Glo, 72 h; series mostly up to 44.9 µM
Inconclusive results are not listed. Active and inactive are the calls of the source. The call rests on the fitted dose curve; in most records, active means well fitted inhibition curve with a large enough effect; inconclusive means small, poorly fitted or top-dose-only effect; inactive means flat fitted curve, though single readings scatter.
Select the correct class. Options are True for active, False for inactive and nothing else.

Examples from the recorded data:
compound="C=C1[C@@H](C2=CC(=O)OC2)CC[C@@]2(O)[C@@H]1CC1[C@H]2CC[C@@H]2C[C@@H](O[C@H]3O[C@@H](C)[C@@H](O[C@@H]4O[C@H](CO[C@@H]5O[C@H](CO)[C@@H](O)[C@H](O)[C@H]5O)[C@@H](O)[C@H](O)[C@H]4O)[C@H](OC)[C@H]3O)CC[C@]12C (some centres not stated)" assigned_class=True
compound=CN(c1ccc(NC(=O)Nc2ccc(OC(F)(F)F)cc2)cc1)c1ccnc(Nc2cccc(S(N)(=O)=O)c2)n1 assigned_class=True
compound="CC1(CO)CCCC2(C)C1C(OC(=O)c1ccccc1)C=C1C(=O)OCC12O (configuration not stated)" assigned_class=True
compound="O=C1c2ccccc2-c2nc3nnnn3nc21 (tested in a mixture with another compound)" assigned_class=True
compound=CSc1cc2c(s1)c1cnn(Cc3ccccc3F)c(=O)c1n2C assigned_class=False

Query: Please let me know the test result on file for `CCCCc1nc(Cl)c(CO)n1Cc1ccc(-c2ccccc2-c2nnn[nH]2)cc1` .
Reply: False

Query: Please let me know the test result on file for `COc1ccc(Cl)cc1[C@@]1(F)C(=O)Nc2cc(C(F)(F)F)ccc21` .
Reply: True
